Each entry below carries its recorded inhibition.
Target: Hexose transporter 1 (Plasmodium falciparum)
Test: ST_JUDE_LEISH: Cytotoxicity at 2uM final concentration against transgenic Leishmania Mexicana promastigotes LmPfHT that are glucose transport deficient and complemented with the Plasmodium falciparum hexose transporter. Activity is measured by DNA content using SYBR green in vitro
Type: functional
Measurement name: inhibition

[
  {
    "Molecule": "CC(CCc1ccccc1)NCC(O)c1cccc(C(F)(F)F)c1 (stereo not given)",
    "Measurement name": "inhibition",
    "Data value": "5.17%"
  },
  {
    "Molecule": "O=c1cc(NC[C@H]2CCC[C@@H]2NC2CCCc3c2[nH]c2ccccc32)[nH]c2ccccc12 (stereo not given in full)",
    "Measurement name": "inhibition",
    "Data value": "-1.31%"
  },
  {
    "Molecule": "Nc1c(Cl)cc(C(O)CNCCCCCCOCCc2ccc(O)cc2)cc1Cl (stereo not given)",
    "Measurement name": "inhibition",
    "Data value": "-1.55%"
  },
  {
    "Molecule": "O=c1cc(NCCCNCc2cc3ccc(Br)cc3s2)[nH]c2ccccc12",
    "Measurement name": "inhibition",
    "Data value": "-0.27%"
  },
  {
    "Molecule": "CC[C@H](C)CNC(=O)c1ccnc(-c2ccc(CN3CCC(N4CCCC4)CC3)cc2)c1",
    "Measurement name": "inhibition",
    "Data value": "0.38%"
  },
  {
    "Molecule": "Cc1cc(C2CCN(CCCCNC(=O)c3ccc(NC(=O)c4ccc(Cl)cc4)cc3)CC2)c(C)cc1OCc1cccnc1",
    "Measurement name": "inhibition",
    "Data value": "-0.98%"
  },
  {
    "Molecule": "CS(=O)(=O)Nc1ccc2[nH]cc(C3CCN(CCCCCNC(=O)/C=C/c4ccc(Cl)c(Cl)c4)CC3)c2c1",
    "Measurement name": "inhibition",
    "Data value": "3.77%"
  },
  {
    "Molecule": "O=C(Nc1ccc(O)c(-c2nc3ccccc3[nH]2)c1)c1ccc([N+](=O)[O-])cc1",
    "Measurement name": "inhibition",
    "Data value": "-0.21%"
  },
  {
    "Molecule": "Cc1cc(N[C@@H](Cc2ccccc2)C(=O)NCCOc2ccccc2)nc(Nc2ccccc2)n1",
    "Measurement name": "inhibition",
    "Data value": "6.54%"
  },
  {
    "Molecule": "COC(=O)c1ccc(OCC(C)NCC(O)c2cccc(C(F)(F)F)c2)cc1 (stereo not given)",
    "Measurement name": "inhibition",
    "Data value": "8.32%"
  },
  {
    "Molecule": "Cc1cccc2nc(-c3ccc(-c4cccc(CNCCCNS(C)(=O)=O)c4)s3)[nH]c12",
    "Measurement name": "inhibition",
    "Data value": "2.35%"
  },
  {
    "Molecule": "CC(=O)Nc1ccc(C(=O)Nc2ccc(-c3csc(-c4nc5ccccc5[nH]4)c3)cc2)cn1",
    "Measurement name": "inhibition",
    "Data value": "1.57%"
  },
  {
    "Molecule": "COc1ccc(CCN(C)CCCOc2ccc(NC(=O)COc3cccc4sc5ccccc5c(=O)c34)cc2)cc1OC",
    "Measurement name": "inhibition",
    "Data value": "-2.87%"
  },
  {
    "Molecule": "CC(C)CNCc1cccc(-c2ccc(CNC3CCN(Cc4ccccc4)CC3)cc2)c1",
    "Measurement name": "inhibition",
    "Data value": "7.43%"
  },
  {
    "Molecule": "CC1CCCCN1Cc1cccc(-c2c[nH]c3nc(NC4CCCC4)ncc23)c1 (stereo not given)",
    "Measurement name": "inhibition",
    "Data value": "6.53%"
  },
  {
    "Molecule": "CNc1nc(N/N=C/c2cc3c(cc2[N+](=O)[O-])OCO3)nc(Nc2cccc(C(F)(F)F)c2)n1",
    "Measurement name": "inhibition",
    "Data value": "5.94%"
  },
  {
    "Molecule": "Cc1cc(NCc2ccccc2)nc2cc(O)ccc12",
    "Measurement name": "inhibition",
    "Data value": "13.2%"
  },
  {
    "Molecule": "CN(C)CCOc1cc(NC(=O)Nc2ccc(-c3ccncc3)c(Cl)c2)ccc1I",
    "Measurement name": "inhibition",
    "Data value": "1.09%"
  },
  {
    "Molecule": "Oc1ccccc1CNC1CCCCC1NCc1ccccc1O (stereo not given)",
    "Measurement name": "inhibition",
    "Data value": "9.96%"
  },
  {
    "Molecule": "O=C(Nc1ccc2c(c1)CCC2)c1cnc(N2CCN(c3ccncc3)CC2)c(Cl)c1",
    "Measurement name": "inhibition",
    "Data value": "63.6%"
  }
]
